test_system: T1, recombinant human IGSF8 extracellular domain tagged by a human Fc region (IGSF8-hFc) (human, UniProt Q969P0 28-579, biotin label in Examples 17, 18 and 28 (site not given))
T1 construct: also called IGSF8-Fc fusion protein; IGSF8-hFc-biotin; not shown: human Fc region
T1 sequence: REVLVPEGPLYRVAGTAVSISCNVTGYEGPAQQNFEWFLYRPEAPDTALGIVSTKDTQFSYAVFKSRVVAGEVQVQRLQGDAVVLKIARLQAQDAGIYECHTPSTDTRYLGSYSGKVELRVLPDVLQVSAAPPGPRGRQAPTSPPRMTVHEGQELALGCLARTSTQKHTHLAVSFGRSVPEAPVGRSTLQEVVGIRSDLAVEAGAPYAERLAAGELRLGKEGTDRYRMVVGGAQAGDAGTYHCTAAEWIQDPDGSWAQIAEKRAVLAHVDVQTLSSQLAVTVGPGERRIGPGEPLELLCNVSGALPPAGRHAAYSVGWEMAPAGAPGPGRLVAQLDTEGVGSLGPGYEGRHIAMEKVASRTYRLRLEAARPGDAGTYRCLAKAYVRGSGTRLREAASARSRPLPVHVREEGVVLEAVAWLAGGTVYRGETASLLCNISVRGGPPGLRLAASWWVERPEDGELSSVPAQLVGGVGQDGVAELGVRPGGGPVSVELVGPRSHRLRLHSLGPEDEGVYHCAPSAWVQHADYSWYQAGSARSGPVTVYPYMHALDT
test_details: SPR, Ab captured
Could you please report measured pKd for the items listed next?
Lab note: report pKd as minus log10 of the concentration in molar units, number only.

Q: Report pKd for L1VH-D53Y (antibody, V domains shown) VH: QVQLVESGGGVVQPGRSLRLSCAASGFTFSTYGMHWVRQAPGKGLEWVAVIWYDGSYKYYGDSVKGRFTISRDNSKNTLYLQMNSLRAEDTAVYYCARDGSGWGYAFDIWGQGTMVTVSS VL: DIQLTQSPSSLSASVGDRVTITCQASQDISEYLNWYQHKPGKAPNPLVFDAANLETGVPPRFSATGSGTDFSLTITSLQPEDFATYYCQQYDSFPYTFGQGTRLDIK
Ans: 6.44

Q: Report pKd for L1-06 (antibody, V domains shown) VH: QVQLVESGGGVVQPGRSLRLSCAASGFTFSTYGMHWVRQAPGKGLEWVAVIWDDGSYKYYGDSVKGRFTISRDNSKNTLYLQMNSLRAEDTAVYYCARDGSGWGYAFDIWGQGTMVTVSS VL: DIQLTQSPSSLSASVGDRVTITCQASQDIGPWLNWYQHKPGKAPNPLVFDAANLETGVPPRFSATGSGTDFSLTITSLQPEDFATYYCQQYDSFPYTFGQGTRLDIK
Ans: 8.64

This collection of values is drawn from patent US20230303695A1.
